- MEASUREMENT PROTOCOL: chemical genetic growth profiling, strain panel (AID 1159580);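 note: tested at 20 µM; growth read once vehicle control cultures reached saturation at 30 °C; 1 = growth at the plate median or of vehicle wells; lower values mean less growth of the strain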
- EXPERIMENTAL CONTEXT: S. cerevisiae deletion strains, growth OD, locus YMR263W, strain SAP30, stronger effect = lower value
About 2,000 (36%) of roughly 5,500 compounds were called active. Another 18% or so got no clear call; they are omitted. The list shows a part of the results.
MEASUREMENT NAME: normalized growth
In your answer, state the number alone without any accompanying words.

Query: Tell me the measured normalized growth of Fc1ccc(C(OCCN2CCN(CCCc3ccccc3)CC2)c2ccc(F)cc2)cc1 , please.
Result: 0.997

Query: Tell me the measured normalized growth of C/C(=N/O)c1sc2nc(C(F)(F)F)nn2c1C , please.
Result: 0.964

Query: Tell me the measured normalized growth of CCN(CC)CCOC(=O)c1cc(Cl)c(N)cc1OC , please.
Result: 1

Query: Tell me the measured normalized growth of N=C(N)SCCc1cnc[nH]1 , please.
Result: 0.979

Query: Tell me the measured normalized growth of CN(C)CCCC1(c2ccc(F)cc2)OCc2cc(C#N)ccc21 (stereo not given) , please.
Result: 0.962

Query: Tell me the measured normalized growth of CN(C)CCN(Cc1ccccc1)c1ccccn1 , please.
Result: 0.976

Query: Tell me the measured normalized growth of Cc1ccc(S(=O)(=O)NC(=O)NN2CCCCCC2)cc1 , please.
Result: 0.998

Query: Tell me the measured normalized growth of OC1(c2ccc(F)cc2)Cc2ccccc2C2=NCCN21 (stereo not given) , please.
Result: 0.894

Query: Tell me the measured normalized growth of CN1CC[C@@]2(C)c3cc(O)ccc3N(C)C12 (stereo not given in full) , please.
Result: 0.993

Query: Tell me the measured normalized growth of CCCCCCN(CCCCCC)C(=O)Cc1c(-c2ccc(F)cc2)[nH]c2ccccc12 , please.
Result: 1

Query: Tell me the measured normalized growth of C=C[C@@](C)(O)CCC1C(=C)C[C@H](O)C2C(C)(C)CCCC12C (stereo not given in full) , please.
Result: 1.01

Query: Tell me the measured normalized growth of CCn1cc(C(=O)O)c(=O)c2cc(F)c(N3CCNC(C)C3)c(F)c21 (stereo not given) , please.
Result: 1

Query: Tell me the measured normalized growth of CSc1c(-c2ccccc2)c(N)nn1S(=O)(=O)c1ccccc1 , please.
Result: 0.983

Query: Tell me the measured normalized growth of CSc1nc2ccccc2[nH]1 , please.
Result: 1.02

Query: Tell me the measured normalized growth of CC[C@@H]1C=C/C=C/C[C@H](C)[C@@H](O)[C@](C)(O)C(=O)[C@H](C)[C@@H](O)[C@H](C)C(=O)[C@H](C)[C@@H](O)[C@H](C)/C=C/C(=O)O[C@H]2[C@@H](C)[C@@H](CC1)O[C@@]1(CC[C@@H](C)[C@@H](CC(C)O)O1)[C@@H]2C (stereo not given in full) , please.
Result: 1.02

Query: Tell me the measured normalized growth of N#CCCN(CC1CCCO1)C(=S)Nc1cc(C(F)(F)F)cc(C(F)(F)F)c1 (stereo not given) , please.
Result: 0.978

Query: Tell me the measured normalized growth of COc1ccc(-c2coc3cc(OC)ccc3c2=O)cc1 , please.
Result: 0.898

Query: Tell me the measured normalized growth of O=C(CCc1nc(-c2ccc(Cl)cc2)no1)NNS(=O)(=O)c1cc(Cl)c(Cl)cc1Cl , please.
Result: 1.01

Query: Tell me the measured normalized growth of C[C@@H]1CC(Cl)CC[C@H]1C(=O)OC(C)(C)C (stereo not given in full) , please.
Result: 0.976

Query: Tell me the measured normalized growth of COc1ccc(C2CNC(=O)C2)cc1OC1CCCC1 (stereo not given) , please.
Result: 1

Query: Tell me the measured normalized growth of O=c1cccc2ccc(O)c(O)c2c1O , please.
Result: 0.481

Query: Tell me the measured normalized growth of CCCCCCCCCCC[C@@H](C[C@H]1OC(=O)[C@H]1CCCCCC)OC(=O)[C@@H](CC(C)C)NC=O , please.
Result: 1.04

Query: Tell me the measured normalized growth of COc1ccc([C@H]2Oc3c(I)c(OC)cc(OC)c3C[C@@H]2O)cc1OC , please.
Result: 1.04

Query: Tell me the measured normalized growth of CN1C2CCC1CC(OC(=O)c1c[nH]c3ccccc13)C2 (stereo not given) , please.
Result: 1

Query: Tell me the measured normalized growth of CCN(CC)C(=O)N1CCN(C)CC1 , please.
Result: 1.02

Query: Tell me the measured normalized growth of Cc1cc(=O)n2[nH]cnc2n1 , please.
Result: 1.02

Query: Tell me the measured normalized growth of Clc1ccc(C(OCCN2CCCCC2)c2ccccc2)cc1 (stereo not given) , please.
Result: 0.977

Query: Tell me the measured normalized growth of CC1(C)CCC[C@@]2(C)C1[C@@H](O)C[C@]1(C)C2CC[C@@H]2[C@@]3(C)CC[C@H](C(C)(C)O)[C@@H]3CC[C@@]21C (stereo not given in full) , please.
Result: 1

Query: Tell me the measured normalized growth of O=[N+]([O-])c1ccc(N2CCCCC2)nc1N1CCCCC1 , please.
Result: 0.95

Query: Tell me the measured normalized growth of O=C(NNC(=S)Nc1cccc(Cl)c1)c1ccncc1 , please.
Result: 0.994

Query: Tell me the measured normalized growth of Cc1ncc(CNC(=O)N(CCCl)N=O)c(N)n1 , please.
Result: 1.01

Query: Tell me the measured normalized growth of Cc1nc(N)ncc1Sc1ccccc1 , please.
Result: 0.966

Query: Tell me the measured normalized growth of O=C(c1c(F)cccc1F)N1CCN(C(=O)c2c(F)cccc2F)CC1 , please.
Result: 0.99

Query: Tell me the measured normalized growth of CCOC(=O)Cc1csc(N=CNO)n1 , please.
Result: 0.999

Query: Tell me the measured normalized growth of c1ccc2c(c1)CCCC2C1=NCCN1 (stereo not given) , please.
Result: 1.01

Query: Tell me the measured normalized growth of Fc1ccc(C(OCCCc2cnc[nH]2)c2ccc(F)cc2)cc1 , please.
Result: 1.01

Query: Tell me the measured normalized growth of Cc1[nH]c2ccccc2c1CN(C)C , please.
Result: 1.02

Query: Tell me the measured normalized growth of COc1c(Br)cc([N+](=O)[O-])c(OC)c1C(N)=O , please.
Result: 0.946

Query: Tell me the measured normalized growth of NCCC(=O)NCCc1cnc[nH]1 , please.
Result: 1

Query: Tell me the measured normalized growth of COC(=O)c1ccc(Cl)cc1NS(=O)(=O)c1ccc(OC)c(OC)c1 , please.
Result: 0.986

Query: Tell me the measured normalized growth of O=[N+]([O-])c1ccc(S(=O)(=O)N2CCCCC2)cc1 , please.
Result: 0.972

Query: Tell me the measured normalized growth of COc1c(N2CCNC(C)C2)c(F)cc2c(=O)c(C(=O)O)cn(C3CC3)c12 (stereo not given) , please.
Result: 1.01

Query: Tell me the measured normalized growth of NCCCS(=O)(=O)O , please.
Result: 0.977

Query: Tell me the measured normalized growth of O=C1C(Cl)=C(Cl)C(=O)C(Cl)=C1Cl , please.
Result: 0.794

Query: Tell me the measured normalized growth of CN(C)C=Nc1ncccc1OCc1ccc(Cl)c(Cl)c1 , please.
Result: 0.963
